Measured MCC at 3 days accompanies every entry in the list below.
- Test: Cytotoxicity against MDCK cells assessed as minimum concentration required to cause microscopically detectable alteration measured on day 3 post infection by MTS assay
- Type: cell-based, Canis lupus familiaris
- Cond: dog
Only the number, expressed in µM, is required.

Cpd Smiles	MCC at 3 days (µM)
COC(=O)[C@H]1NC(=O)[C@H]2NC(=O)[C@H](NC(=O)[C@@H]3NC(=O)[C@H]4NC(=O)[C@H](NC(=O)[C@H](n5cc6ccccc6c5Sc5ccccc5)c5ccc(O)c(c5)Oc5cc4cc(O)c5C)[C@H](O)c4ccc(cc4)Oc4cc3cc(c4O)Oc3ccc(cc3)[C@H]2O)c2ccc(O)c(c2)-c2c(O)cc(O)cc21	6.4

Given the entry COC(=O)[C@H]1NC(=O)[C@H]2NC(=O)[C@H](NC(=O)[C@@H]3NC(=O)[C@H]4NC(=O)[C@H](NC(=O)[C@H](n5cc6ccccc6c5S[C@@H]5O[C@H](CO)[C@@H](O)[C@H](O)[C@H]5O)c5ccc(O)c(c5)Oc5cc4cc(O)c5C)[C@H](O)c4ccc(cc4)Oc4cc3cc(c4O)Oc3ccc(cc3)[C@H]2O)c2ccc(O)c(c2)-c2c(O)cc(O)cc21 , report its measured MCC at 3 days.
20

Dear colleague, I am looking for the recorded MCC at 3 days of the following compound: COC(=O)[C@H]1NC(=O)[C@H]2NC(=O)[C@H](NC(=O)[C@@H]3NC(=O)[C@H]4NC(=O)[C@H](NC(=O)[C@H](n5cc6ccccc6c5Sc5nc6ccccc6s5)c5ccc(O)c(c5)Oc5cc4cc(O)c5C)[C@H](O)c4ccc(cc4)Oc4cc3cc(c4O)Oc3ccc(cc3)[C@H]2O)c2ccc(O)c(c2)-c2c(O)cc(O)cc21
20

Return reported MCC at 3 days; argument: COC(=O)[C@H]1NC(=O)[C@H]2NC(=O)[C@H](NC(=O)[C@@H]3NC(=O)[C@H]4NC(=O)[C@H](NC(=O)[C@H](n5cc6ccccc6c5S[C@@H]5O[C@H](COC(C)=O)[C@@H](OC(C)=O)[C@H](OC(C)=O)[C@H]5NC(C)=O)c5ccc(O)c(c5)Oc5cc4cc(O)c5C)[C@H](O)c4ccc(cc4)Oc4cc3cc(c4O)Oc3ccc(cc3)[C@H]2O)c2ccc(O)c(c2)-c2c(O)cc(O)cc21
20

---

- System: Staphylococcus epidermidis
- Test: Antibacterial activity against Staphylococcus epidermidis expressing mecA gene by broth microdilution method
- Type: functional
Endpoint Name: MIC (µg/mL)
Reply with just the number (in µg/mL).

# MIC lookup, item COC(=O)[C@H]1NC(=O)[C@H]2NC(=O)[C@H](NC(=O)[C@@H]3NC(=O)[C@H]4NC(=O)[C@H](NC(=O)[C@H](n5cc6ccccc6c5Sc5ccccc5)c5ccc(O)c(c5)Oc5cc4cc(O)c5C)[C@H](O)c4ccc(cc4)Oc4cc3cc(c4O)Oc3ccc(cc3)[C@H]2O)c2ccc(O)c(c2)-c2c(O)cc(O)cc21
1

---

# MIC listing for each entry below
- Test system: Enterococcus faecalis
- Test: Antibacterial activity against Enterococcus faecalis ATCC 15376 expressing vanA gene by broth microdilution method
- Format: functional
// note: answer is a bare numeric in µg/mL

Some molecules with recorded MIC:
Cpd Smiles	Uom	MIC
COC(=O)[C@H]1NC(=O)[C@H]2NC(=O)[C@H](NC(=O)[C@@H]3NC(=O)[C@H]4NC(=O)[C@H](NC(=O)[C@H](n5cc6ccccc6c5S[C@@H]5O[C@H](COC(C)=O)[C@@H](OC(C)=O)[C@H](OC(C)=O)[C@H]5NC(C)=O)c5ccc(O)c(c5)Oc5cc4cc(O)c5C)[C@H](O)c4ccc(cc4)Oc4cc3cc(c4O)Oc3ccc(cc3)[C@H]2O)c2ccc(O)c(c2)-c2c(O)cc(O)cc21	µg/mL	4
COC(=O)[C@H]1NC(=O)[C@H]2NC(=O)[C@H](NC(=O)[C@@H]3NC(=O)[C@H]4NC(=O)[C@H](NC(=O)[C@H](n5cc6ccccc6c5S[C@@H]5O[C@H](CO)[C@@H](O)[C@H](O)[C@H]5O)c5ccc(O)c(c5)Oc5cc4cc(O)c5C)[C@H](O)c4ccc(cc4)Oc4cc3cc(c4O)Oc3ccc(cc3)[C@H]2O)c2ccc(O)c(c2)-c2c(O)cc(O)cc21	µg/mL	1
CN[C@H](CC(C)C)C(=O)N[C@H]1C(=O)N[C@@H](CC(N)=O)C(=O)N[C@H]2C(=O)N[C@H]3C(=O)N[C@H](C(=O)N[C@H](C(=O)O)c4cc(O)cc(O)c4-c4cc3ccc4O)[C@H](O)c3ccc(c(Cl)c3)Oc3cc2cc(c3O[C@@H]2O[C@H](CO)[C@@H](O)[C@H](O)[C@H]2O[C@H]2C[C@](C)(N)[C@H](O)[C@H](C)O2)Oc2ccc(cc2Cl)[C@H]1O	µg/mL	256
COC(=O)[C@H]1NC(=O)[C@H]2NC(=O)[C@H](NC(=O)[C@@H]3NC(=O)[C@H]4NC(=O)[C@H](NC(=O)[C@H](n5cc6ccccc6c5Sc5nc6ccccc6s5)c5ccc(O)c(c5)Oc5cc4cc(O)c5C)[C@H](O)c4ccc(cc4)Oc4cc3cc(c4O)Oc3ccc(cc3)[C@H]2O)c2ccc(O)c(c2)-c2c(O)cc(O)cc21	µg/mL	1
COC(=O)[C@H]1NC(=O)[C@H]2NC(=O)[C@H](NC(=O)[C@@H]3NC(=O)[C@H]4NC(=O)[C@H](NC(=O)[C@H](n5cc6ccccc6c5Sc5ncccn5)c5ccc(O)c(c5)Oc5cc4cc(O)c5C)[C@H](O)c4ccc(cc4)Oc4cc3cc(c4O)Oc3ccc(cc3)[C@H]2O)c2ccc(O)c(c2)-c2c(O)cc(O)cc21	µg/mL	0.5

// next item, MIC requested
So what's the measured MIC for this one? COC(=O)[C@H]1NC(=O)[C@H]2NC(=O)[C@H](NC(=O)[C@@H]3NC(=O)[C@H]4NC(=O)[C@H](NC(=O)[C@H](n5cc6ccccc6c5Sc5ccccc5)c5ccc(O)c(c5)Oc5cc4cc(O)c5C)[C@H](O)c4ccc(cc4)Oc4cc3cc(c4O)Oc3ccc(cc3)[C@H]2O)c2ccc(O)c(c2)-c2c(O)cc(O)cc21
4

---

- Tested on: Staphylococcus aureus
- Test: Antibacterial activity against methicillin-sensitive Staphylococcus aureus ATCC 29213 by broth microdilution method
- Assay type: functional
Endpoint Name: MIC (µg/mL)
Dear colleague, please return just the value in µg/mL, with no unit written.

Sample COC(=O)[C@H]1NC(=O)[C@H]2NC(=O)[C@H](NC(=O)[C@@H]3NC(=O)[C@H]4NC(=O)[C@H](NC(=O)[C@H](n5cc6ccccc6c5S[C@@H]5O[C@H](CO)[C@@H](O)[C@H](O)[C@H]5O)c5ccc(O)c(c5)Oc5cc4cc(O)c5C)[C@H](O)c4ccc(cc4)Oc4cc3cc(c4O)Oc3ccc(cc3)[C@H]2O)c2ccc(O)c(c2)-c2c(O)cc(O)cc21 — what was its MIC?
1

---

- System: Staphylococcus aureus
- Test: Antibacterial activity against methicillin-resistant Staphylococcus aureus ATCC 33591 by broth microdilution method
- Format: functional
Endpoint Name: MIC (µg/mL)
Field format: number, assumed µg/mL, no unit text.

I would be grateful if you could share the reported MIC for COC(=O)[C@H]1NC(=O)[C@H]2NC(=O)[C@H](NC(=O)[C@@H]3NC(=O)[C@H]4NC(=O)[C@H](NC(=O)[C@H](n5cc6ccccc6c5S[C@@H]5O[C@H](COC(C)=O)[C@@H](OC(C)=O)[C@H](OC(C)=O)[C@H]5OC(C)=O)c5ccc(O)c(c5)Oc5cc4cc(O)c5C)[C@H](O)c4ccc(cc4)Oc4cc3cc(c4O)Oc3ccc(cc3)[C@H]2O)c2ccc(O)c(c2)-c2c(O)cc(O)cc21 .
1

---

Attribute: MIC
- System: Bacillus subtilis
- Test: Antibacterial activity against Bacillus subtilis ATCC 6633 by broth microdilution method
- Assay type: functional
Give the quantity in µg/mL, number only.

Compound	Endpoint Name	Uom	Experimental Result
CN[C@H](CC(C)C)C(=O)N[C@H]1C(=O)N[C@@H](CC(N)=O)C(=O)N[C@H]2C(=O)N[C@H]3C(=O)N[C@H](C(=O)N[C@H](C(=O)O)c4cc(O)cc(O)c4-c4cc3ccc4O)[C@H](O)c3ccc(c(Cl)c3)Oc3cc2cc(c3O[C@@H]2O[C@H](CO)[C@@H](O)[C@H](O)[C@H]2O[C@H]2C[C@](C)(N)[C@H](O)[C@H](C)O2)Oc2ccc(cc2Cl)[C@H]1O [VANCOMYCIN]	MIC	µg/mL	0.5
COC(=O)[C@H]1NC(=O)[C@H]2NC(=O)[C@H](NC(=O)[C@@H]3NC(=O)[C@H]4NC(=O)[C@H](NC(=O)[C@H](n5cc6ccccc6c5S[C@@H]5O[C@H](COC(C)=O)[C@@H](OC(C)=O)[C@H](OC(C)=O)[C@H]5NC(C)=O)c5ccc(O)c(c5)Oc5cc4cc(O)c5C)[C@H](O)c4ccc(cc4)Oc4cc3cc(c4O)Oc3ccc(cc3)[C@H]2O)c2ccc(O)c(c2)-c2c(O)cc(O)cc21	MIC	µg/mL	8
COC(=O)[C@H]1NC(=O)[C@H]2NC(=O)[C@H](NC(=O)[C@@H]3NC(=O)[C@H]4NC(=O)[C@H](NC(=O)[C@H](n5cc6ccccc6c5S[C@@H]5O[C@H](CO)[C@@H](O)[C@H](O)[C@H]5O)c5ccc(O)c(c5)Oc5cc4cc(O)c5C)[C@H](O)c4ccc(cc4)Oc4cc3cc(c4O)Oc3ccc(cc3)[C@H]2O)c2ccc(O)c(c2)-c2c(O)cc(O)cc21	MIC	µg/mL	2
COC(=O)[C@H]1NC(=O)[C@H]2NC(=O)[C@H](NC(=O)[C@@H]3NC(=O)[C@H]4NC(=O)[C@H](NC(=O)[C@H](n5cc6cc7ccccc7cc6c5Sc5ccccc5)c5ccc(O)c(c5)Oc5cc4cc(O)c5C)[C@H](O)c4ccc(cc4)Oc4cc3cc(c4O)Oc3ccc(cc3)[C@H]2O)c2ccc(O)c(c2)-c2c(O)cc(O)cc21	MIC	µg/mL	0.5
COC(=O)[C@H]1NC(=O)[C@H]2NC(=O)[C@H](NC(=O)[C@@H]3NC(=O)[C@H]4NC(=O)[C@H](NC(=O)[C@H](n5cc6ccccc6c5Sc5nc6ccccc6s5)c5ccc(O)c(c5)Oc5cc4cc(O)c5C)[C@H](O)c4ccc(cc4)Oc4cc3cc(c4O)Oc3ccc(cc3)[C@H]2O)c2ccc(O)c(c2)-c2c(O)cc(O)cc21	MIC	µg/mL	2

Checklist item: MIC tested on Bacillus subtilis, entry COC(=O)[C@H]1NC(=O)[C@H]2NC(=O)[C@H](NC(=O)[C@@H]3NC(=O)[C@H]4NC(=O)[C@H](NC(=O)[C@H](n5cc6cc7ccccc7cc6c5Sc5ncccn5)c5ccc(O)c(c5)Oc5cc4cc(O)c5C)[C@H](O)c4ccc(cc4)Oc4cc3cc(c4O)Oc3ccc(cc3)[C@H]2O)c2ccc(O)c(c2)-c2c(O)cc(O)cc21 , value?
2
